Biological target: T1, BoNT/D (Clostridium botulinum, UniProt P19321 2-1276)
T1 sequence: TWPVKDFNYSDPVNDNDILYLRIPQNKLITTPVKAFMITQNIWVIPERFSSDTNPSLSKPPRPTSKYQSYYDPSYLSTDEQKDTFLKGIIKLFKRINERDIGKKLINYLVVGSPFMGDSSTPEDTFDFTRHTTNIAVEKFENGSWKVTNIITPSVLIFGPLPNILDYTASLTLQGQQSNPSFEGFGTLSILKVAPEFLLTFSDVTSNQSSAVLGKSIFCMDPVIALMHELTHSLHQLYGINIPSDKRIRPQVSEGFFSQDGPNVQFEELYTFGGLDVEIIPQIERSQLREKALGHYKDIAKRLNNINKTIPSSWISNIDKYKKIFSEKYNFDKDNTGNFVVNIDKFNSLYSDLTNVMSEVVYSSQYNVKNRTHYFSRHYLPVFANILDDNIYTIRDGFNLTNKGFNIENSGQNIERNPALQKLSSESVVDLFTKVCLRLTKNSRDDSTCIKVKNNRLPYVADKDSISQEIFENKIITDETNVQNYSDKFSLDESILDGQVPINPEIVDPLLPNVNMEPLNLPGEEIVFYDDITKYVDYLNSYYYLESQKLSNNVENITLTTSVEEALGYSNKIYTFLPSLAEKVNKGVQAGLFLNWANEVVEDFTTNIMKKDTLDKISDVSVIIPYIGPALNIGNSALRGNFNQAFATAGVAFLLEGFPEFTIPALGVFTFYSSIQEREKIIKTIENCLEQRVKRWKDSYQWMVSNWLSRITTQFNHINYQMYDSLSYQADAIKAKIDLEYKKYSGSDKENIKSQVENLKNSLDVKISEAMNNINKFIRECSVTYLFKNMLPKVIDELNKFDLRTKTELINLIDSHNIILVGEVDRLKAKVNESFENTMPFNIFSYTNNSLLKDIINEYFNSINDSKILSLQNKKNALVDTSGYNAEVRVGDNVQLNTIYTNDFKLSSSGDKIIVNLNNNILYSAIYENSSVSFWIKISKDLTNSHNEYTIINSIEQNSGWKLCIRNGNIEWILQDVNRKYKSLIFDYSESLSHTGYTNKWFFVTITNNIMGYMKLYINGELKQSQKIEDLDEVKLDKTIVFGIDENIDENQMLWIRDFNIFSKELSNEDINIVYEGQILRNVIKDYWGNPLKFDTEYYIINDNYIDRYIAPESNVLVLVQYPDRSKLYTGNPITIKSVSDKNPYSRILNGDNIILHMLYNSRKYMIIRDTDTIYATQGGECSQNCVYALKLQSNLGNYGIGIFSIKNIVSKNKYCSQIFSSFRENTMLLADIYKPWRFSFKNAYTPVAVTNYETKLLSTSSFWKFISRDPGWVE
Assay: yeast scFv FACS
observationType: binding result

* 8DC11 scFv (scFv, V domains shown, human) VH: QVQLVESGPGLVKPSQTLSLSCTVSGGSVNHYYWNWIRQPPGKGLEWIGYIFYNGRTNYNPSLKSRVTMSVDTSKNQISLKLRSVTAADTAVYYCAREGARGYCSSTSCHDAFDIWGRGTLVTVSS VL: EIVLTQSPSFLSASVGDRVTITCRASQGIRNDLAWFQQKPGKAPKLLIYATSTLQSGVPSRFSGSGSGTDFTLTISSLQPEDFADYYCQQAASFPLTFGGGTKVDIK | binds
* 8DC8.6 scFv (scFv, V domains shown, human) VH: QVQLQQSGPGLVKPSETLSLTCTVSGGSISSAGYSWSWIRQSPGKGLECLGYIYQTGSTFYNLSLKGRVTMSLDRSKNQISLRLTSVVAADTAVYYCARVVGVYPGWFDSWGQGTLVTVSS VL: DIQMTQSPSSLSASVGDRVTITCRASQGVSTDLAWYQQKPGRAPKLLIYRASSLQSGVPSRFSGSGSGTDFTLTISSLQPDDLATYYCQHYESYSPWTFGQGTQGEIK | binds

Reference source for all entries: patent US20220089784A1
